pIC50: −log10 of the molar value.
Consider the following pIC50 data for human DGAT2 (hDGAT2) (Homo sapiens, UniProt Q96PD7), collected from several reports.
recorded_metric: pIC50

CC1(NC(=O)c2ccc3c(-c4ccccc4Cl)nn(-c4ccc(F)cc4)c3c2)CCS(=O)(=O)C1 (single isomer, unassigned): 8.08

A. Cc1c(OCc2ncc(Cl)cc2OCC(F)F)ccc2nc(C(=O)NC3(C)CCS(=O)(=O)CC3)nn12
B. CC(C)c1nn(-c2cncc(OC(F)F)c2)c2ncc(C(=O)NC3(C)CS(=O)(=O)C3)cc12
C. O=C(N[C@@H]1C[C@H](CO)[C@@H](O)[C@H]1O)c1ccc2c(-c3ccccc3Cl)nn(-c3ccc(F)cc3)c2c1
D. CC1(NC(=O)c2ccc3c(-c4cccc(OC(F)F)c4)cn(-c4ccc(F)cn4)c3c2)CCS(=O)(=O)C1 (single isomer, unassigned; enantiomer b)
E. CC1(NC(=O)c2ccc3c(-c4cc(Cl)cc(Cl)c4)nn(-c4ccc(F)cc4)c3c2)CCS(=O)(=O)C1 (single isomer, unassigned)
In: Ranking field: pIC50; order: falling. Your answer should be the labels, listed in the requested order.
Out: D, B, E, C, A

====

Consider the following IC50 data for human DGAT2 (hDGAT2) (Homo sapiens), collected from several reports.
recorded_metric: IC50 (nM)

a. COC(=O)c1cccc(-c2ccc(CNC(=O)C3CC3c3ccccc3)c3c2CCN(C(=O)Cc2ccccc2)C3)c1 (stereo not shown)
b. O=C(NC1(CC(F)(F)F)CCS(=O)(=O)CC1)c1cn2cc(Oc3ncc(Cl)cc3OCC(F)(F)F)ccc2n1
c. CC(NC(=O)c1ccc2c(-c3ccccc3Cl)nn(-c3ccc(F)cc3)c2c1)c1c[nH]cn1 (racemic)
In: Order the records so the highest IC50 appears first and the lowest last. Your answer should be the labels, listed in the requested order.
Out: a, c, b

====

pIC50: −log10 of the molar value.
Consider the following pIC50 data for UniProt Q96PD7, collected from several reports.
recorded_metric: pIC50

CCc1c(C(=O)NC2(C)CS(=O)(=O)C2)nn2ccc(Oc3ncccc3OCC(F)(F)F)cc12: 6.59
CC(O)CC(C)(C)NC(=O)c1ccc2c(-c3ccccc3Cl)nn(-c3ccc(F)cc3)c2c1 (racemic): 7.39
O=C(NC1CCS(=O)(=O)C1)c1ccc2c(-c3cccc(C4CC4)c3)nn(-c3ccc(F)cn3)c2c1 (single isomer, unassigned): 7.96
CC1(NC(=O)c2cc3c(F)c(Oc4ncc(F)cc4OCC(F)(F)F)ccn3n2)CCS(=O)(=O)CC1: 7.70
Cc1c(C(=O)NC2(C)CCS(=O)(=O)CC2)nc2ccc(Oc3ncc(F)cc3OCC(C)(F)F)cn12: 7.92

1. CC(C)(C)OC(=O)N1CC[C@H](NC(=O)c2ccc3c(-c4ccccc4Cl)nn(-c4ccc(F)cc4)c3c2)C1
2. O=C(NC1CCS(=O)(=O)C1)c1ccc2c(-c3cccc(Cl)c3Cl)nn(-c3ccc(F)cc3)c2c1 (single isomer, unassigned)
In: Between 1 and 2 , which one shows the larger pIC50 value? Give the label under which the chosen entry appears.
Out: 2

I. Cc1cc2nc(C(=O)NC3(CC(F)(F)F)CCS(=O)(=O)CC3)cn2cc1Oc1ncc(Cl)cc1OCC(F)(F)F
II. Cc1nc2ccccn2c1CNC(=O)c1ccc(-c2cccc(C(F)(F)F)c2)c2c1CN(C(=O)NC(C)(C)C)CC2
III. COC(=O)c1cccc(-c2ccc(CNC(=O)C3CC3c3ccccc3)c3c2CCN(C(=O)C2(C)CC2)C3)c1 (centres unmarked)
In: # ascending order, key=pIC50 Your answer should be the labels, listed in the requested order.
Out: III, II, I
(III: 6.28, II: 6.92, I: 8.25)

I. Cc1c(C(=O)NC2(CC#N)CCS(=O)(=O)CC2)nc2ccc(Oc3ncc(Cl)cc3OCC(F)F)cn12
II. Cc1c(C(=O)NC2(C)CCS(=O)(=O)CC2)nc2ccc(Oc3ncc(Cl)cc3OCC(F)(F)F)cn12
In: Between I and II , which one shows the larger pIC50 value? Give the label under which the chosen entry appears.
Out: I
(I: 8.92, II: 8.52)

1. Cc1cnc(Oc2ccc3nc(C(=O)NC4(C)CS(=O)(=O)C4)c(C)n3c2)c(OCC(F)(F)F)n1
2. Cc1c(C(=O)NC2(C)CCS(=O)(=O)CC2)nc2c(F)cc(Oc3ncccc3OCC(F)(F)F)cn12
In: Between 1 and 2 , which one shows the larger pIC50 value? Give the label under which the chosen entry appears.
Out: 2
(2: 8.92, 1: 8.24)
